Target: Glycylpeptide N-tetradecanoyltransferase (Candida albicans (strain SC5314 / ATCC MYA-2876) (Yeast), UniProt P30418)
Sequence (P30418 whole entry): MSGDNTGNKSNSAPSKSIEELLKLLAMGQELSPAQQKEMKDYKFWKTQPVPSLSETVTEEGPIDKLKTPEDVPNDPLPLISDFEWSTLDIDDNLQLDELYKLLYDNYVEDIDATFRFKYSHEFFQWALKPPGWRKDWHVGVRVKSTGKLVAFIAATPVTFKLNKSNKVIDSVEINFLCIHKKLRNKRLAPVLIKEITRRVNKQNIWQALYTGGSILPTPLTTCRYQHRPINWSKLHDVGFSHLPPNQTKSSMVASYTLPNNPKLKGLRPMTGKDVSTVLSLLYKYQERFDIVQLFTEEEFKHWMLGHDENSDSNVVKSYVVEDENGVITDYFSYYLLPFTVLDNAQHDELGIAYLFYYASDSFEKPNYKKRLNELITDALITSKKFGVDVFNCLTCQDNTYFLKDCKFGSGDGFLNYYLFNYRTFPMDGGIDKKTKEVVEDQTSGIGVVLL
Test: Inhibition of Candida albicans ATCC 90028 NMT using GLTISKLFRR-NH2 as substrate assessed as reduction in [3H]-myristoylated peptide reaction product formation preincubated with substrate for 10 mins followed by enzyme addition measured after 10 mins by HPLC analysis
measurement_name: IC50

Q. Name the reported IC50 value associated with the compound O=C(Nc1nc2ccc(NC(=O)[C@@H]3CCC[C@H](NCc4ccc5ccccc5c4)C3)cc2s1)C1CCCC1
A. 0.49 nM

* * *

Assay: Oral bioavailability in rabbit
Format: ADME, organism-based, Oryctolagus cuniculus
Conditions: in vivo
measurement_name: bioavailability (%)
API: value field is a number in %; no unit string.

Q. Name the reported bioavailability value associated with the compound C=C1C[C@H](N)[C@H](C(=O)O)C1
A. 100

Source: ChEMBL document CHEMBL4190370
